Method: Half life in rat at 4 umol/kg, iv and po
Format: ADME, organism-based
Setup Conditions: in vivo
Measure Name: half-life
Please provide the amount together with its unit, number first.

Data request: Entry `CCCc1cc(N[C@@H](CC(C)C)C(=O)NCCCOCC)nc(-n2cnc(-c3ccc(OC(F)(F)F)cc3)c2)n1` : reported half-life = ?
Data returned: 2.7 h

----------
Method: Half life in dog at 2 umol/kg, iv and 4 umol/kg, po
Assay type: ADME, organism-based, Canis lupus familiaris
Setup Conditions: in vivo
Measure Name: half-life (h)
Give the value, in units of h, as a plain number.

Data request: Please look up its half-life: `CCCc1cc(N[C@@H](CC(C)C)C(=O)NCCCOCC)nc(-n2cnc(-c3ccc(OC(F)(F)F)cc3)c2)n1`
Data returned: 1.1
